B1: HDV Ribozyme (parent)
chain: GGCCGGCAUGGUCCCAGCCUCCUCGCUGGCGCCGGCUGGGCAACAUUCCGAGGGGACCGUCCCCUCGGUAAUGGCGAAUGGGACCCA

# Variants of: B1
# PROTOCOL DESCRIPTION: self-cleavage, relative activity (ratio to wild type); higher = more cleavage; co-transcriptional
Response key: Satisfied means self-cleavage >= 0.3; Not satisfied means self-cleavage < 0.3.

Below, 10 variants whose answers are already recorded.
{"columns": ["MUTATION KEY", "CLASS LABEL"],
 "data": [
  ["C21A G29C", "Not satisfied"],
  ["A51U U72C", "Satisfied"],
  ["A71U A77G", "Satisfied"],
  ["C7A C24G", "Not satisfied"],
  ["C26A G52C", "Satisfied"],
  ["C44A G76A", "Satisfied"],
  ["C63G A70G", "Satisfied"],
  ["U20A G52A", "Not satisfied"],
  ["C26G G76U", "Satisfied"],
  ["C41U U79C", "Satisfied"]
]}

Incoming: Please indicate if the recorded self-cleavage for C36G G55A meets or exceeds 0.3.
Outgoing: Not satisfied

Incoming: Please indicate if the recorded self-cleavage for C15U G28A meets or exceeds 0.3.
Outgoing: Not satisfied

Incoming: Please indicate if the recorded self-cleavage for C48U G74C meets or exceeds 0.3.
Outgoing: Not satisfied

Incoming: Please indicate if the recorded self-cleavage for G10A C15U meets or exceeds 0.3.
Outgoing: Satisfied

Incoming: Please indicate if the recorded self-cleavage for G38A C62U meets or exceeds 0.3.
Outgoing: Not satisfied

Incoming: Please indicate if the recorded self-cleavage for U65C G74A meets or exceeds 0.3.
Outgoing: Satisfied

Incoming: Please indicate if the recorded self-cleavage for G80U A87G meets or exceeds 0.3.
Outgoing: Not satisfied
